Measured inhibition at 250 µM, listed per entry for reference.
- test.system: purified E. coli cyt bo3 oxidase (Escherichia coli, UniProt P0ABI8)
- Construct: made in house; host or cells: E. coli strain GO195 with plasmid pIRHisA
- Sequence (P0ABJ1 25-315): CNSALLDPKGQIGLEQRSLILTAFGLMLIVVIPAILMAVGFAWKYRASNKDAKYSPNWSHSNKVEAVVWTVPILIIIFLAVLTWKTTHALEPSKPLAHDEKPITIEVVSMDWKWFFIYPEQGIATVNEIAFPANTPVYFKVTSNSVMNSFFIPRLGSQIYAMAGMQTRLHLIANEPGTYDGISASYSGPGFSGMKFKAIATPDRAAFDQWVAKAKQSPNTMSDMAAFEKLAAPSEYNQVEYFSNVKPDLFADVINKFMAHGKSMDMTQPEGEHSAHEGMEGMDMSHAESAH
- Sequence (P0ABJ3 whole entry, further chain): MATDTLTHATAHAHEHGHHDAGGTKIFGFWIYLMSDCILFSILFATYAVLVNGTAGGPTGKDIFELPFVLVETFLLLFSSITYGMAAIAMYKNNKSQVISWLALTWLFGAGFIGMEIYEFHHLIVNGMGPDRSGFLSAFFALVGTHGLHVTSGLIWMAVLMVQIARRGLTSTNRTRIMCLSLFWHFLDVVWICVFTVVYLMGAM
- Sequence (P0ABI8 whole entry): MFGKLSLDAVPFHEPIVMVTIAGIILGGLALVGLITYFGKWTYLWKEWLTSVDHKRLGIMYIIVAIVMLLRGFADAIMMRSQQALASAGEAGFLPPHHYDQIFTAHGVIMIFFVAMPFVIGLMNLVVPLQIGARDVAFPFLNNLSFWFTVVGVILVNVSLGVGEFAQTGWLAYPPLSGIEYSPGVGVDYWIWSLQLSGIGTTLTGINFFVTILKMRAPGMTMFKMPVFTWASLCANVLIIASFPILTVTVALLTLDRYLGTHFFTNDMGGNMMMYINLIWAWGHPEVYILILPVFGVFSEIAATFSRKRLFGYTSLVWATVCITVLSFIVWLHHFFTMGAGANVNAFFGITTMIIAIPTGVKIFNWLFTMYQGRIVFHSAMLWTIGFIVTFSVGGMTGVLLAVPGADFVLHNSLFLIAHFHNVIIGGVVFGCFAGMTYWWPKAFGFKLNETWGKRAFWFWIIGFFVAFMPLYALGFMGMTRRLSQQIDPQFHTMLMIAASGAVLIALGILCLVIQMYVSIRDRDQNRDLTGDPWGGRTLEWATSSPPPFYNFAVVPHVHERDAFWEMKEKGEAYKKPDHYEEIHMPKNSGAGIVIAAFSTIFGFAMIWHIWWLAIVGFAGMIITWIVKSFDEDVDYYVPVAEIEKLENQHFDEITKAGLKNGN
- Sequence (P0ABJ6 whole entry, further chain): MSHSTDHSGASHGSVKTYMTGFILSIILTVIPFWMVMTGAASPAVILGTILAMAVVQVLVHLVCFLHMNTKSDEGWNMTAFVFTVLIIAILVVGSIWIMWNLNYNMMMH
- assay.procedure: biochemical
- condition.label: HNQ 250 μM, 200 μM ubiquinone-1; read-out: inhibition (reduction) of cyt bo3 activity

Please review the following examples before continuing.
1) CN(C)c1ccc(CC2=C(O)C(=O)c3ccccc3C2=O)cc1 : < 30%
2) COc1cc(CC2=C(O)C(=O)c3ccccc3C2=O)ccc1O : > 50%
3) O=C1C(O)=C(C(c2nc3ccccc3s2)N2CCC[C@H]2C(=O)O)C(=O)c2ccccc21 (some centres unmarked) : < 30%
4) O=C1C(O)=C(Cc2ccc3[nH]ncc3c2)C(=O)c2ccccc21 : 40%

Okay, now this compound:
Ask: Answer with reported inhibition at 250 µM of "O=C1C(O)=C(Cc2ccncc2)C(=O)c2ccccc21"
Result: < 30%

All figures here come from paper PMC7497249.
